tested on: P388 leukemia ip, CD2F1 mice, survival T/C; assay: NCI In Vivo Anticancer Drug Screen. Data for tumor model P388 Leukemia (intraperitoneal) in CD2F1 (CDF1) mice; conditions: endpoint: median survival time; dose: 200.0 mg/kg/injection; schedule: Q04DX002 (ip); vehicle: Klucel (hydroxypropylcellulose) (HPC); higher = longer survival
Inconclusive results and toxic doses are left out.
Recorded Metric: T/C

Sample answers from the record:
compound=CSC(=S)n1nc(C)c(N=Nc2cccc(C)c2C)c1C recorded_metric=T/C value_measured="96 % of control"
compound="COc1ccccc1C1=[N+]([O-])C(C)(C)C(c2ccccc2)C1 (configuration not stated)" recorded_metric=T/C value_measured="102 % of control"
compound="CC1=C(O)CC(/C(C)=C\\Cl)OC1=O (configuration not stated)" recorded_metric=T/C value_measured="98 % of control"
compound=C=C(C)c1nc(N)nc(-c2ccc(OC)cc2)n1 recorded_metric=T/C value_measured="94 % of control"
compound="C=COC(=O)C(Cc1ccc(Cl)cc1)NC(=O)OCc1ccccc1 (configuration not stated)" recorded_metric=T/C value_measured="91 % of control"
compound="O=C(c1ccccc1)C1C(c2ccccc2)SC(c2ccccc2)CC1(O)Cl (configuration not stated)" recorded_metric=T/C value_measured="87 % of control"
compound=Cn1c(=O)c2nsnc2n(C)c1=O recorded_metric=T/C value_measured="107 % of control"
compound="CC(C)C(CO)NC(=O)c1ccccc1 (configuration not stated)" recorded_metric=T/C value_measured="96 % of control"
compound="CCCCOC(=O)C(C)OC(=O)Nc1cccc(C)c1 (configuration not stated)" recorded_metric=T/C value_measured="103 % of control"
compound="O=C1CN2C(=O)C1(c1ccccc1)C(=O)NC2=S (configuration not stated)" recorded_metric=T/C value_measured="106 % of control"

Would you kindly share the measured T/C for CC(=O)Oc1c(C)c(C)c(OC(C)=O)c(OC(C)=O)c1C ?
96 % of control

Would you kindly share the measured T/C for OC(CNC1CCCCC1)CO/N=C1\CCSc2c(Cl)cccc21 (configuration not stated) ?
87 % of control

The origin of these recorded values is PubChem BioAssay AID330.
